The compounds listed here are annotated with their Population Normal (%).
test system: Fibroblast; experiment: Multiplex assay against human fibroblast; assay type: toxicity, cell-based; details: 48 h, 1 µM, compound concentration 1 uM, replicate 1
Write down the numeric answer in % and omit the unit.

Query: For the compound Cc1cc(C)c(S(=O)(=O)N(Cc2ccc(-c3cccc(S(C)(=O)=O)c3)cc2)Cc2ccc(C(F)(F)F)o2)c(C)c1 , give its measured Population Normal (%) value.
Result: 91

* * *

tested on: U2OS; test: Multiplex assay against U2OS; assay type: toxicity, cell-based; conditions: human, 12 h, 1 µM, compound concentration 1 uM, replicate 1
The molecules listed here are annotated with their Population Pyknosed Nuclei (%).
Write down the numeric answer in % and omit the unit.

Query: For the molecule CCN1CCN(Cc2ccc(Nc3ncc(F)c(-c4cc(F)c5nc(C)n(C(C)C)c5c4)n3)nc2)CC1.CS(=O)(=O)O , give its measured Population Pyknosed Nuclei (%) value.
Result: 17

* * *

system: U2OS; assay: Multiplex assay against U2OS; assay type: toxicity, cell-based; conditions: human, 12 h, 10 µM, compound concentration 10 uM, replicate 1
The molecules listed here are annotated with their Total Cell Count.
I only need the number, thanks.

COc1cc(N2CCN(C)CC2)ccc1Nc1ncc2c(n1)N(C)c1ccccc1C(=O)N2C
177
Cn1nc(C(F)(F)F)cc1-c1cnc(N2CCc3cc(S(=O)(=O)Nc4c(F)cc(Cl)cc4F)cc(N4CCCC4=O)c32)nc1
196
O=C(Nc1cccnn1)N1CCC(=Cc2cccc(Oc3ccc(C(F)(F)F)cn3)c2)CC1
311
CNc1cc(Oc2cc(C(=O)Nc3cc(N4CCN(C)CC4)cc(C(F)(F)F)c3)ccc2C)ncn1
116
Cl.Oc1ccc2c3c1O[C@H]1c4[nH]c5c(c4C[C@@]4(O)[C@@H](C2)N(CC2CC2)CC[C@]314)C[C@@]1(O)[C@H]2Cc3ccc(O)c4c3[C@@]1(CCN2CC1CC1)[C@H]5O4
183

Query: For the molecule CCCS(=O)(=O)c1nc(NC2CC2)cc(-c2ccc3c(ccn3C3CC(C)(C)NC(C)(C)C3)c2)n1 , give its measured Total Cell Count value.
Result: 142

Query: For the molecule O=C(Nc1ccc(-c2ccnc(Nc3ccc(N4CCOCC4)cc3)n2)cc1)[C@@H]1CCCN1 , give its measured Total Cell Count value.
Result: 176

Query: For the molecule COc1ccc(S(=O)(=O)N(CCO)c2ccccc2CN(C)C/C=C/c2ccc(Cl)cc2)cc1.O=P(O)(O)O , give its measured Total Cell Count value.
Result: 170

* * *

The molecules listed here are annotated with their Population Healthy Nuclei (%).
system: U2OS; experiment: Multiplex assay against U2OS; type: toxicity, cell-based; conditions: human, 12 h, 1 µM, compound concentration 1 uM, replicate 1
Write down the numeric answer in % and omit the unit.

O=C(Nc1ccc(-n2nc(-c3cccnc3)cc2C(F)(F)F)cn1)c1ccc(-c2ccccc2)c(F)c1
74
CCOC(=O)c1c(C)[nH]c2ccc3c(c12)CN1CCc2cc(OC)ccc2C1O3 (stereo not given)
81
CCc1cccc(CC)c1NC(=O)c1nn(C)c2c1CCc1cnc(Nc3ccc(C(=O)NC4CCN(C)CC4)cc3OC(F)(F)F)nc1-2
60
O=C(Nc1ccc(Cl)cc1)Nc1cccc(-c2cccc(N3CCCC3)n2)c1
79

Query: For the molecule COC(=N)c1nc2ccc3ncnc(Nc4ccc(OC)cc4F)c3c2s1 , give its measured Population Healthy Nuclei (%) value.
Result: 78

* * *

test system: HEK-293T; experiment: Multiplex assay against HEK293T; assay type: toxicity, cell-based; conditions: human, 12 h, 1 µM, compound concentration 1 uM, replicate 1
The compounds listed here are annotated with their Population Hoechst High Intensity Objects (%).

Worked cases, Population Hoechst High Intensity Objects (%) given:
CN1CCN(C(=O)C(C)(C)c2ccc(C(=O)Nc3cn4cc(-c5cc(C(C)(C)C)cc(C(C)(C)C)c5)ccc4n3)cc2)CC1
12%
COC(=N)c1nc2ccc3ncnc(Nc4ccc(OC)cc4F)c3c2s1
21%
Cl.O=c1c2cccn2c2ccccc2n1CCCN1CCC(c2ccc(Cl)cc2)CC1
10%
CCOC(=O)c1c(C)[nH]c2ccc3c(c12)CN1CCc2cc(OC)ccc2C1O3 (stereo unspecified)
14%
CCOc1cc(C(=O)N2CCC(N3CCN(C)CC3)CC2)ccc1Nc1ncc2c(n1)N(C1CCCC1)c1ccccc1C(=O)N2C
18%
CN1C2CCC1CC(OC(c1ccc(F)cc1)c1ccc(F)cc1)C2.Cl (stereo unspecified)
12%
Cc1ccc(C(=O)Nc2cccc(C(F)(F)F)c2)cc1Nc1nc(-c2cccnc2)nc2c1cnn2C
19%
Cc1cc(C)c(S(=O)(=O)N(Cc2ccc(-c3cccc(S(C)(=O)=O)c3)cc2)Cc2ccc(C(F)(F)F)o2)c(C)c1
10%

Query: For the compound Cc1cn(-c2cc(NC(=O)c3ccc(C)c(Nc4nccc(-c5cccnc5)n4)c3)cc(C(F)(F)F)c2)cn1 , give its measured Population Hoechst High Intensity Objects (%) value.
Result: 17%

Query: For the compound COc1ccc(-c2ccc3c(N4CCOCC4)nc(N4C[C@@H](C)O[C@@H](C)C4)nc3n2)cc1CO , give its measured Population Hoechst High Intensity Objects (%) value.
Result: 20%

Query: For the compound CCc1cccc(CC)c1NC(=O)c1nn(C)c2c1CCc1cnc(Nc3ccc(N4CCN(C)CC4)cc3OC)nc1-2 , give its measured Population Hoechst High Intensity Objects (%) value.
Result: 18%

Query: For the compound O=C1NC(=O)C(c2cnc3ccccn23)=C1c1cn2c3c(cc(F)cc13)CN(C(=O)N1CCCCC1)CC2 , give its measured Population Hoechst High Intensity Objects (%) value.
Result: 16%

Query: For the compound COc1cc2ncnc(Nc3ccc(F)c(Cl)c3)c2cc1NC(=O)/C=C/CN1CCCCC1 [DACOMITINIB ANHYDROUS] , give its measured Population Hoechst High Intensity Objects (%) value.
Result: 24%

Query: For the compound COc1cc(N2CCN(C)CC2)ccc1Nc1ncc2c(n1)N(C)c1ccccc1C(=O)N2C , give its measured Population Hoechst High Intensity Objects (%) value.
Result: 6%

Query: For the compound CCN1CCN(Cc2ccc(Nc3ncc(F)c(-c4cc(F)c5nc(C)n(C(C)C)c5c4)n3)nc2)CC1.CS(=O)(=O)O , give its measured Population Hoechst High Intensity Objects (%) value.
Result: 17%

Query: For the compound CN(C)C(=O)C(CCN1CCC(O)(c2ccc(Cl)cc2)CC1)(c1ccccc1)c1ccccc1.Cl [LOPERAMIDE HYDROCHLORIDE] , give its measured Population Hoechst High Intensity Objects (%) value.
Result: 16%

* * *

test system: Fibroblast; test: Multiplex assay against human fibroblast; assay type: toxicity, cell-based; settings: 12 h, 1 µM, compound concentration 1 uM, replicate 1
The molecules listed here are annotated with their Total Cell Count.
I only need the number, thanks.

Cl.O=C(c1ccc(Nc2nccc(-c3cc4ccccc4s3)n2)cc1)N1CCC(N2CCCC2)CC1
260
CCn1cc(-c2ccnc3[nH]c(-c4cccc(CN(C)C)c4)cc23)c(-c2ccc(NC(=O)N(C)C)cc2)n1
205

Query: Give reported Total Cell Count for CN(C)C(=O)C(CCN1CCC(O)(c2ccc(Cl)cc2)CC1)(c1ccccc1)c1ccccc1.Cl [LOPERAMIDE HYDROCHLORIDE] (Fibroblast)
Result: 155

Query: Give reported Total Cell Count for Cc1cc(C)c(S(=O)(=O)N(Cc2ccc(-c3cccc(S(C)(=O)=O)c3)cc2)Cc2ccc(C(F)(F)F)o2)c(C)c1 (Fibroblast)
Result: 161

Query: Give reported Total Cell Count for CCCn1c(=O)c2[nH]c(-c3cnn(Cc4cccc(C(F)(F)F)c4)c3)nc2n(CC)c1=O (Fibroblast)
Result: 95

Query: Give reported Total Cell Count for CCc1cccc(CC)c1NC(=O)c1nn(C)c2c1CCc1cnc(Nc3ccc(C(=O)NC4CCN(C)CC4)cc3OC(F)(F)F)nc1-2 (Fibroblast)
Result: 160

Query: Give reported Total Cell Count for CCN1CCN(c2ccc(Nc3cc(N(C)C(=O)Nc4c(Cl)c(OC)cc(OC)c4Cl)ncn3)cc2)CC1 (Fibroblast)
Result: 322

Query: Give reported Total Cell Count for CCNc1cc(N[C@H]2CC[C@H](O)CC2)nc(Nc2ccc3c(ccn3Cc3ccccc3)c2)n1 (Fibroblast)
Result: 286

* * *

test system: HEK-293T; assay: Multiplex assay against HEK293T; format: toxicity, cell-based; conditions: human, 12 h, 10 µM, compound concentration 10 uM, replicate 1
The molecules listed here are annotated with their Population Mitochondria Different-Phenotype (%).
Write down the numeric answer in % and omit the unit.

Worked cases, Population Mitochondria Different-Phenotype (%) given:
CNc1cc(Oc2cc(C(=O)Nc3cc(N4CCN(C)CC4)cc(C(F)(F)F)c3)ccc2C)ncn1
100
CCCS(=O)(=O)Nc1ccc(F)c(C(=O)c2c[nH]c3ncc(Cl)cc23)c1F
2
O=C(Nc1ccc(-n2nc(-c3cccnc3)cc2C(F)(F)F)cn1)c1ccc(-c2ccccc2)c(F)c1
90

Would you kindly look at the next entry?
Query: For the molecule COCC(=O)NC/C=C/c1ccc2ncnc(Nc3ccc(Oc4ccc(C)nc4)c(C)c3)c2c1 , give its measured Population Mitochondria Different-Phenotype (%) value.
Result: 100
